# target system: T1, Eukaryotic initiation factor 4E (eIF4E), full-length human (human, UniProt P06730 1-217)
# T1 construct: eIF4E, human, full length
# T1 sequence (P06730 whole entry): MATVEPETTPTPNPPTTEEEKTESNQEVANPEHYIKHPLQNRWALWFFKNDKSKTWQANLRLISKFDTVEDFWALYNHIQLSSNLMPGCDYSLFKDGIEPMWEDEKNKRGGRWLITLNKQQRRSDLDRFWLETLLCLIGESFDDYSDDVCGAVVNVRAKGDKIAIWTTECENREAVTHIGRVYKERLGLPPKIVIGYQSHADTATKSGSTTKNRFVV
# assay comment: SPR; eIF4E amine coupled to a CM5 chip (about 1000 RU, m7GTP present at immobilisation), peptides injected; 10 mM Hepes pH 7.6, 0.15 M NaCl, 1 mM DTT, 0.1% Tween20, 3% DMSO; Biacore T100; Kd from the equilibrium responses (Keq), 1:1 model, three titrations
# measurement conditions: both partners purified
measured quantity: pKd
Numbers only, as −log10 of the molar value.

Observe how each entry below is paired with its result.
{"binder": "KKRYEREFLLGF (eIF4G1 peptide with D5E; also called eIF4G-D5E; source: synthetic peptide (Mimotopes), HPLC purified to >90%) [eIF4G1-D5E peptide]", "pKd": 6.13}
{"binder": "KKRYTREFLLGF (eIF4G1 peptide with D5T; source: synthetic peptide (Mimotopes), HPLC purified to >90%) [eIF4G1-D5T peptide]", "pKd": 6.96}
{"binder": "KKRYCREFLLGF (eIF4G1 peptide with D5C; source: synthetic peptide (Mimotopes), HPLC purified to >90%) [eIF4G1-D5C peptide]", "pKd": 6.36}
{"binder": "KKRYGREFLLGF (eIF4G1 peptide with D5G; source: synthetic peptide (Mimotopes), HPLC purified to >90%) [eIF4G1-D5G peptide]", "pKd": 6.33}
{"binder": "KKRYPREFLLGF (eIF4G1 peptide with D5P; source: synthetic peptide (Mimotopes), HPLC purified to >90%) [eIF4G1-D5P peptide]", "pKd": 6.17}

With those in mind, consider the next binder.
Looking up KKRYNREFLLGF (eIF4G1 peptide with D5N; source: synthetic peptide (Mimotopes), HPLC purified to >90%) [eIF4G1-D5N peptide] , I see its pKd listed as 6.35
